assay-method-text: total protein half-life in vivo (active degradation + dilution); higher = more stable protein
assay-conditions: wild type E. coli NCM3722; growth: C-lim chemostat; doubling time 6 h
readout-label: total protein half-life in vivo (h)
The reply should contain only the number, in h.

Examples with their reported total protein half-life in vivo follow.
MTMSLEVFEKLEAKVQQAIDTITLLQMEIEELKEKNNSLSQEVQNAQHQREELERENNHLKEQQNGWQERLQALLGRMEEV [P0AF36]: 5.01
MSQPLLSVNGLMMRFGGLLAVNNVNLELYPQEIVSLIGPNGAGKTTVFNCLTGFYKPTGGTILLRDQHLEGLPGQQIARMGVVRTFQHVRLFREMTVIENLLVAQHQQLKTGLFSGLLKTPSFRRAQSEALDRAATWLERIGLLEHANRQASNLAYGDQRRLEIARCMVTQPEILMLDEPAAGLNPKETKELDELIAELRNHHNTTILLIEHDMKLVMGISDRIYVVNQGTPLANGTPEQIRNNPDVIRAYLGEA [P0A9S7]: 6.18
MNSHNITNESLALALMLVVVAILISHKEKLALEKDILWSVGRAIIQLIIVGYVLKYIFSVDDASLTLLMVLFICFNAAWNAQKRSKYIAKAFISSFIAITVGAGITLAVLILSGSIEFIPMQVIPIAGMIAGNAMVAVGLCYNNLGQRVISEQQQIQEKLSLGATPKQASAILIRDSIRAALIPTVDSAKTVGLVSLPGMMSGLIFAGIDPVKAIKYQIMVTFMLLSTASLSTIIACYLTYRKFYNSRHQLVVTQLKKK: 5.56

Now for another entry.
Exercise: Please report total protein half-life in vivo for the following sequence: "MKIVIAPDSFKESLSAEKCCQAIKAGFSTLFPDANYICLPIADGGEGTVDAMVAATGGNIVTLEVCGPMGEKVNAFYGLTGDGKTAVIEMAAASGLMLVAPEKRNPLLASSFGTGELIRHALDNDIRHIILGIGGSATVDGGMGMAQALGVRFLDADGQALAANGGNLARVASIEMDECDPRLANCHIEVACDVDNPLVGARGAAAVFGPQKGATPEMVEELEQGLQNYARVLQQQTEINVCQMAGGGAAGGMGIAAAVFLNADIKPGIEIVLNAVNLAQAVQGAALVITGEGRIDSQTAGGKAPLGVASVAKQFNVPVIGIAGVLGDGVEVVHQYGIDAVFSILPRLAPLAEVLASGETNLFNSARNIACAIKIGQGIKN"
Solution: 4.82
